System tested: DNMT1 RFTS domain (aa: 351–600) (human, UniProt P26358 351-600)
Sequence (P26358 351-600): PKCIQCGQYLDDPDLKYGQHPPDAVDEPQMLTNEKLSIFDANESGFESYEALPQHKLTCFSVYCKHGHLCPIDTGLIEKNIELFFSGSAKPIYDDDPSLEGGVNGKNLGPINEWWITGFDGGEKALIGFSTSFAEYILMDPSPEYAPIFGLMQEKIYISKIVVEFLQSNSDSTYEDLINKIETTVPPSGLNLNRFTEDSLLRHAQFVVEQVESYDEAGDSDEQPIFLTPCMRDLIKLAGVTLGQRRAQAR
Assay overview: ITC
Measurement name: Kd (µM)
Enter your answer as a number in µM; do not include the unit.

Task: Which Kd is reported for this binder? UHRF1 UBL domain (aa: 1–76) (domain or fragment) MWIQVRTMDGRQTHTVDSLSRLTKVEELRRKIQELFHVEPGLQRLFYRGKQMEDGHTLFDYEVRLNDTIQLLVRQS
Result: 41.3
